Entry source: patent US20180155344A1

# subject-of-test: UniProt:P17752
# Sequence (P17752 whole entry): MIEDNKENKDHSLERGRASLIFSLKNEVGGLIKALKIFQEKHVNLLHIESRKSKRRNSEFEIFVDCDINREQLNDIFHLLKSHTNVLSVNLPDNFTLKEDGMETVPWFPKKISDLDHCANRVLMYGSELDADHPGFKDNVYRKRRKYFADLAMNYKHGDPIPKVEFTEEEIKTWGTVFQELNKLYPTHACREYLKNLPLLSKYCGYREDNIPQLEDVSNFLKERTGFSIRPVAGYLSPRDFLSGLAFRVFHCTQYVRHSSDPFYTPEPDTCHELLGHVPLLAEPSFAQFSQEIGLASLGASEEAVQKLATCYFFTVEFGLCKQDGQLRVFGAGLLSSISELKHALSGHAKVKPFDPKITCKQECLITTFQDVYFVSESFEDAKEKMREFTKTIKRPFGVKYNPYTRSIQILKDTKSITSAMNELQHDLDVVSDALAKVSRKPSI
# assay-remarks: biochemical
In plain terms, low IC50, meaning strictly below 40 nM, gives condition met, and everything else gives condition not met.

Worked examples follow.
[
  {
    "compound": "COc1ccc(C2c3c(nc4ccccn34)CCN2C(=O)COc2ccc(C(=O)NC3CC3)nc2Cl)c(F)c1 (stereo not shown)",
    "subject-of-test": "UniProt:P17752",
    "category-label": "condition met"
  },
  {
    "compound": "CCOc1ccc(C2c3c(nc4cc(C(F)(F)F)ccn34)CCN2C(=O)COc2ccc(CN3CCOCC3)cc2Cl)cc1 (stereo not shown)",
    "subject-of-test": "UniProt:P17752",
    "category-label": "condition met"
  },
  {
    "compound": "Cc1ccc(C2c3c(nc4cc(C(F)(F)F)ccn34)CCN2C(=O)COc2ccc3ccccc3c2)nc1 (stereo not shown)",
    "subject-of-test": "UniProt:P17752",
    "category-label": "condition not met"
  },
  {
    "compound": "O=C(NC1CC1)c1ccc(OCC(=O)N2CCc3nc4ccccn4c3C2c2ccc(OC(F)(F)F)cc2F)c(Cl)n1 (stereo not shown)",
    "subject-of-test": "UniProt:P17752",
    "category-label": "condition met"
  },
  {
    "compound": "COc1ncc(C2c3c(nc4cc(C(F)(F)F)ccn34)CCN2C(=O)COc2ccc(CN3CCOCC3)cc2Cl)cn1 (stereo not shown)",
    "subject-of-test": "UniProt:P17752",
    "category-label": "condition not met"
  }
]

Here is another compound to look at.
stdin: Consider the compound Cc1cc(Cl)ccc1OCC(=O)N1CCc2nc3cc(C(F)(F)F)ccn3c2C1c1ncccc1F (stereo not shown) . Is its IC50 strictly less than 40 nM?
stdout: condition not met
